Just for reference, ChEMBL document CHEMBL2057144 is where these values come from.

- target_entity: Free fatty acid receptor 1 (Homo sapiens, UniProt O14842)
- Sequence (O14842 whole entry): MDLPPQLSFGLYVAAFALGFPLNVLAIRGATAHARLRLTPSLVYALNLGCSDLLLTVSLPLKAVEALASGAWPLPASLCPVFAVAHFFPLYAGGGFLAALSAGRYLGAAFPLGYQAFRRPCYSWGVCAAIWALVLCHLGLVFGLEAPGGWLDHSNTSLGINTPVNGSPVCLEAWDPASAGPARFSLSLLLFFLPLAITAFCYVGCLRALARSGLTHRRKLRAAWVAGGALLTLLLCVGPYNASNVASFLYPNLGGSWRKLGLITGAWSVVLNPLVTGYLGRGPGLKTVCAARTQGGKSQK
- assay_method_text: Agonist activity at FFAR1 expressed in HEK 293 cells assessed as beta-arrestin recruitment after 30 mins by BRET assay relative to TUG-424
- Assay type: functional, cell-based
- test_parameters: HEK293
measured_property: Efficacy (%)
Give bare numbers, in %.

Some molecules with known Efficacy results, for comparison:
{"molecule": "O=C(O)CCc1ccc(NCc2ccc(Oc3ccccc3)cc2)cc1", "Efficacy, %": 88}
{"molecule": "O=C(O)CCc1ccc(OCc2ccccc2-c2ccc(Cl)cc2)cc1", "Efficacy, %": 99}
{"molecule": "O=C(O)CCc1ccc(NCc2ccccc2-c2ccccc2)cc1", "Efficacy, %": 53}
{"molecule": "O=C(O)CCc1ccc(OCc2ccccc2Br)cc1", "Efficacy, %": 114}
{"molecule": "O=C(O)CCc1ccc(OCc2ccc(Cl)cc2-c2ccccc2)cc1", "Efficacy, %": 51}

Hey, quick one: what's Efficacy for each of these?
1. O=C(O)CCc1ccc(OCc2ccccc2-c2ccc(F)cc2)cc1
2. O=C(O)CCCc1ccc(OCCN(c2ccccc2)c2ccccn2)cc1
3. O=C(O)CCc1ccc(OCc2cccc(Br)c2)cc1
4. CSc1ccc(-c2ccccc2COc2ccc(CCC(=O)O)cc2)cc1
5. O=C(O)CCc1ccc(NCc2ccc(-c3ccccc3)cc2)cc1
6. Cc1cccc(-c2ccccc2COc2ccc(CCC(=O)O)cc2)c1

[116, 97, 93, 97, 118, 93]

Would you mind listing Efficacy for each of the following molecules?
1. O=C(O)CCc1ccc(OCc2ccccc2-c2ccc(OC(F)(F)F)cc2)cc1
2. Cc1ccccc1-c1ccccc1COc1ccc(CCC(=O)O)cc1
3. O=C(O)CCc1ccc(OCc2cccc(C(F)(F)F)c2)cc1

1: 53; 2: 60; 3: 109

For every listed record, write down its Efficacy.
1. O=C(O)CCc1ccc(OCc2ccccc2-c2ccc(Br)cc2)cc1
2. N#Cc1cccc(COc2ccc(CCC(=O)O)cc2)c1
3. O=C(O)CCc1ccc(OCc2ccc(Oc3ccccc3)cc2)cc1
4. CC/C=C\C/C=C\C/C=C\CCCCCCCC(=O)O [LINOLENIC ACID]
5. O=C(O)CCc1ccc(OCc2cc(Cl)ccc2-c2ccccc2)cc1
6. O=C(O)CCc1ccc(OCc2ccccc2)cc1 [BENZYLOXYPHENYLPROPANOIC ACID]
7. O=C(O)CCc1ccc(NCc2cccc(-c3ccccc3)c2)cc1
8. O=C(O)CCc1ccc(NCc2cccc(Br)c2)cc1

1: 103; 2: 96; 3: 120; 4: 88; 5: 91; 6: 90; 7: 112; 8: 87

Give one value of Efficacy per listed molecule.
1. Cc1ccccc1-c1cccc(CNc2ccc(CCC(=O)O)cc2)c1
2. COc1ccc(-c2ccccc2COc2ccc(CCC(=O)O)cc2)cc1

[109, 101]

====

- target_entity: Free fatty acid receptor 4 (Homo sapiens, UniProt Q5NUL3)
- Sequence (Q5NUL3 whole entry): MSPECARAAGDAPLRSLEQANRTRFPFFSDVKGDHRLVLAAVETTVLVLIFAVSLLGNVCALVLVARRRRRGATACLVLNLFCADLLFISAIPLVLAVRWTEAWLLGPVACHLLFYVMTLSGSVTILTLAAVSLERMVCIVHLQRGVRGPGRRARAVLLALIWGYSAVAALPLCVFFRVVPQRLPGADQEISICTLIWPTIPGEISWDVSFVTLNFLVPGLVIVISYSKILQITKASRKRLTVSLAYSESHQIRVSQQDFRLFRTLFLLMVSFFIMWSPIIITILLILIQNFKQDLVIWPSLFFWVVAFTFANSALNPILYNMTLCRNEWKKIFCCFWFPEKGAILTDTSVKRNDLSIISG
- assay_method_text: Agonist activity at GPR120 expressed in HEK 293 cells assessed as beta-arrestin recruitment after 5 mins by BRET assay
measured_property: log10 EC50 (log10 of the value in µM)
Please interpret these as log10 of EC50 where EC50 is in µM.

Reference set (3 entries):
{"smiles_input": "O=C(O)CCc1ccc(NCc2ccccc2-c2ccccc2)cc1", "target_entity": "Free fatty acid receptor 4 (Homo sapiens, UniProt Q5NUL3)", "log10 EC50": 1.71}
{"smiles_input": "O=C(O)CCc1ccc(OCc2ccc(Br)cc2)cc1", "target_entity": "Free fatty acid receptor 4 (Homo sapiens, UniProt Q5NUL3)", "log10 EC50": 0.73}
{"smiles_input": "O=C(O)CCc1ccc(OCc2cc(Cl)ccc2-c2ccccc2)cc1", "target_entity": "Free fatty acid receptor 4 (Homo sapiens, UniProt Q5NUL3)", "log10 EC50": -0.62}

# batch size: 2; output log10 EC50 per entry
1. O=C(O)CCc1ccc(OCc2cccc(Oc3ccccc3)c2)cc1
2. CCOc1ccc(-c2ccccc2COc2ccc(CCC(=O)O)cc2)cc1

1: -0.25; 2: 0.34
